Recorded values, source patent US10428140B2.

Molecular target: T1, human EphA4 (Homo sapiens, UniProt P54764)
T1 construct: made in house; not restated for the human SEAP-His protein
T1 sequence (P54764 20-547): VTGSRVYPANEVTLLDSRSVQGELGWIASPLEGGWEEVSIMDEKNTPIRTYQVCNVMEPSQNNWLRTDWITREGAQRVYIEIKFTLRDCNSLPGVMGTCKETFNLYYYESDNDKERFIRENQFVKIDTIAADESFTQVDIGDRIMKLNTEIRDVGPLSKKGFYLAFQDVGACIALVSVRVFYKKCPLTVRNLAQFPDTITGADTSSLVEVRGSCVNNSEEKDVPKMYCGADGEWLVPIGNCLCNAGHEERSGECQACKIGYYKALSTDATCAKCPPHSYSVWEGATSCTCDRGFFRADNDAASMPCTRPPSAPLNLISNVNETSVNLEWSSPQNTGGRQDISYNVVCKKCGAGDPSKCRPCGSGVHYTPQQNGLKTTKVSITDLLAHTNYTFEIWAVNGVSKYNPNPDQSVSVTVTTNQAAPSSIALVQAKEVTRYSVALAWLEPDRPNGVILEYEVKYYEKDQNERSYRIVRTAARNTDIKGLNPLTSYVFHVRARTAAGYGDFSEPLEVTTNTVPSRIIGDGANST
Experiment: Affinity of humanized antibodies by SPR (Biacore T200)
Format: binding
Conditions: human EphA4 extracellular region-SEAP-His; KD=kd/ka
Catalogue of pKd readings, one per entry.
// field semantics: pKd = negative decimal log of concentration (mol/L)

Molecule: 94 (antibody, V domains shown, constant regions without entry; synthetic humanized antibody light chain variable region sequence; synthetic humanized antibody heavy chain variable region sequence) VL: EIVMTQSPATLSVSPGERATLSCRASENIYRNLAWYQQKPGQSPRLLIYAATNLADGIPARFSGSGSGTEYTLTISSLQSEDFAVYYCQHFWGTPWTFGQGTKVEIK VH: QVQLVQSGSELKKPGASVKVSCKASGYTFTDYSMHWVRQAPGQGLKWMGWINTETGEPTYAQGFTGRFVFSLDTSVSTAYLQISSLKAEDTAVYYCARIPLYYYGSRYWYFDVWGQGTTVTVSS
Measurement: 9.02

Now look at this one.
Query :: // pKd lookup, key: 85 (antibody, V domains shown, constant regions without entry; synthetic humanized antibody light chain variable region sequence; synthetic humanized antibody heavy chain variable region sequence) VL: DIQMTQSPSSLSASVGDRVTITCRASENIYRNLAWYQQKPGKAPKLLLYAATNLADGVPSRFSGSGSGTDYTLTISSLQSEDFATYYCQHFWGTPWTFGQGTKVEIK VH: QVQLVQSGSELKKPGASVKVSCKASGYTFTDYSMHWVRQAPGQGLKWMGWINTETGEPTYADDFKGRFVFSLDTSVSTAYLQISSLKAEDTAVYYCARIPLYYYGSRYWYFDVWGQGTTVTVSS
Result :: 8.80
